study system: EPHB2 (UniProt P29323)
Sequence (P29323 whole entry, looked up): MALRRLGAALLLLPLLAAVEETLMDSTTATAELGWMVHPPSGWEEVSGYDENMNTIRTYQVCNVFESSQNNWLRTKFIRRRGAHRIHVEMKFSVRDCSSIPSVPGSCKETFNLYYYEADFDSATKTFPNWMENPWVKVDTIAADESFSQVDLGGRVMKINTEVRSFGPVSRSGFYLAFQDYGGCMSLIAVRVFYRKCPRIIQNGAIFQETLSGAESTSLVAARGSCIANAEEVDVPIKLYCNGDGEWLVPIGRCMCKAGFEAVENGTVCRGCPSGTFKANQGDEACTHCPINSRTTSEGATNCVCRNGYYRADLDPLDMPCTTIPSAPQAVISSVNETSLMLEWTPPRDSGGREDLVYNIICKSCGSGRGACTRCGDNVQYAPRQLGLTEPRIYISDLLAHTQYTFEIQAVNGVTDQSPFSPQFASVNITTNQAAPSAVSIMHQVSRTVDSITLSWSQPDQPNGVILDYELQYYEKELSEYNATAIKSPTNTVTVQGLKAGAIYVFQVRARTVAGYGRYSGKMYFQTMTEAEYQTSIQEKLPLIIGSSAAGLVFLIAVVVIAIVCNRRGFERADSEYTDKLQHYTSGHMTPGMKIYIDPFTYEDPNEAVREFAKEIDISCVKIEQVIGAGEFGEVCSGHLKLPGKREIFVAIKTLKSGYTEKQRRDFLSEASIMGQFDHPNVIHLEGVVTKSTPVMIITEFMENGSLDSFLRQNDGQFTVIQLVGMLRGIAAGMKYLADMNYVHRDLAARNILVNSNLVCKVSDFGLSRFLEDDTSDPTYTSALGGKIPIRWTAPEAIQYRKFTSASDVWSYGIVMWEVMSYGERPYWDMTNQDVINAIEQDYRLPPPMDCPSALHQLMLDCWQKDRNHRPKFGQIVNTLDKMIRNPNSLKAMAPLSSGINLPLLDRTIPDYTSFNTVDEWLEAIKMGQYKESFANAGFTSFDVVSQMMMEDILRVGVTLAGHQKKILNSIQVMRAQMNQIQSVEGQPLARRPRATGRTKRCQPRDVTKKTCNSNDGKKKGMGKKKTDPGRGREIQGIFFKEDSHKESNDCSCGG
test: phosphorylation enrichment, bacterial display (enrichment ratio); higher = better substrate or ligand; peptides without Tyr show the background;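 note: 11-residue human phosphosite peptides and single-mutation variants displayed on the E. coli surface, counted by deep sequencing, each peptide's frequency after selection divided by its frequency in the unselected input library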;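 note: frequency after pTyr selection over input frequency; kinase dosed for 20-30% of maximal phosphorylation in three min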
Grouping key: phosphorylation enrichment. Bins: LOW (below 0.5), MID (0.5 to below 0.6), HIGH (0.6 or more)

Answered examples (5):
NTYEKYLGEEY [TF_Y669] :: HIGH
GQSKGYRPKLF [SIPA1L3_Y1376_YF] :: LOW
AGREEYSAMRD [KRAS_Y64_Q61R] :: MID
PLDGEYFILQI [TP53_Y327_T329I] :: HIGH
KKRSVYLKVLF [CC2D2A_Y683] :: MID

Class? Entry: HNVAIYEGYAL [ACTC1_Y168_P166A]
HIGH

Class? Entry: PPGRSYSPCDY [TNS1_Y793_Y796C]
HIGH

Class? Entry: APQYTYAQGGQ [FLNA_Y1763]
LOW

Class? Entry: KRAIGYFSATS [FAM120A_Y327_YF]
LOW

Class? Entry: HPWPRYTTRAP [FNDC1_Y1281_Q1280R]
HIGH

Class? Entry: RFLRGYEQDAY [HLA-A_Y137_R138E]
LOW

Class? Entry: ETDSEYVKLSK [C7orf57_Y70_A74S]
HIGH

Class? Entry: VAMDDYLKNVM [LRRK2_Y707]
LOW

Class? Entry: ILGRTYYVNHE [NEDD4_Y627]
MID

Class? Entry: LNPLIYSLRNK [OR5R1_Y290]
HIGH
